molecular target: T1, ZIKV (prM80E) with a C-terminal myc-myc-hexahistidine tag (Zika virus, UniProt A0A024B7W1 104-694); assay: SPR, mAb captured, 37C, pH 6.0 chase
T1 construct: also called ZIKV (prM80E)-mmH; ZIKV-mmH
Rule for this label: YES means t½ is less than 3 min; NO means t½ is at least 3 min.

Task: # TODO verify t½ < 3 min strictly for this binder: H4H25704N (antibody, V domains shown) VH: QVQLVESGGGVVQSGRSLRLSCAASGFTFIYYGMHWVRQAPGKGLEWVAVISYDGSDRYYADSVKGRFTISRDDSKNTLYLQMNSLRPEDTAVYYCAKDRGGRFDYWGQGTLVTVSS VL: EIVLTQSPGTLSLSPGERATLSCRASQSVNNNYLAWYQQKPGQAPRLLIYGASSRATGIPDRFGGGGSGTDFTLTISRLEPEDFAVYYCQRYGNSPLTFGGGTKVEIK
Result: NO

Task: State whether 3 min exceeds t½ recorded for H4H25703N (antibody, V domains shown) VH: QVQLVESGGGVVQPGRSLRLSCAASGFTFNYYGMHWVRQAPGKGLEWVAVISYDGTNKYYADSVKGRFTTSRDNSKNTLYLQMNSLRAEDTALYYCARDRGGRFDYWGQGIQVTVSS VL: EIVLTQSPDTLSLSPGERATLSCRASQSVSSNYLAWYQQKPGQAPRLLIYGASSRATGIPDRFSGSGSGTDFTLTISRLEPEDFAVYYCQRYGTSPLTFGGGTKVEIKR .
Result: NO

Task: Determine if H4H25641P (antibody, V domains shown) VH: QVQLVESGGGVVQPGRSLRLSCAASGFTFSYYGMHWVRQAPGKGLEWVAVISYDASNNYYVDSVKGRFTISRDNSKNTLYLQMNSLRAEDTAVYYCAKDYGGRFDYWGQGTLVTVSS VL: EIVLTQSPGTLSLSPGERATLSCGASQSVSSYLAWYQQKPGQTPRLLIYGASSRATGIPDRFSGSGSGTDFTLTISRLEPEDFAVYYCQQYGSSPWTFGQGTKVEIK shows t½ strictly lower than 3 min.
Result: YES

Task: Lab note: t½ threshold 3 min. Does this binder come in strictly under it? H4H25592P (antibody, V domains shown) VH: QVQLVESGGGVVQPGRSLRLSCAASGFTFSYSGMHWVRQAPGKGLEWVAVISYDGSNKYYADSVKGRFTISRDNSNNILYLQMNSLRAEDTAVYYCAKDWGGRFDPWGQGTLVTVSS VL: DIQMTQSPSSLSASVGDRVTITCRASQGISSYLAWYQQIPGKVPKLLIYAASTLHSGVPSRFSGSGSGTDFTLTISSLQPADVATYYCQKYNSAPLTFGGGTKVEIK
Result: YES
